B1: FAM46C (parent)
chain: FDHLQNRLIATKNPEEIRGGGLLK

# Variants of: B1
# method.summary: protein stability index of a GFP-peptide fusion (GPS, HEK-293T) (PSI 1-6); higher = more stable;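 further: lentivirally expressed fusions sorted by FACS into six bins by GFP to DsRed ratio, PSI derived from sequencing read proportions per bin multiplied by bin number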
# experimental.parameters: c terminus: a fixed tail appended
Measured protein stability index, listed per entry.
Give only the figure.

query.sequence	protein stability index
FDHLQNRLIATKNPEEIREGGLLK	4.04

May I ask what protein stability index has been recorded for FDHLQNRLIATKNPIEIRGGGLLK ? 2.93

Can you handle FDHLQNRVIATKNPEEIRGGGLLK next? 2.97

Also FDPLQNRLIATKNPEEIRGGGLLK , if possible. 4
